# Assay name: DPPH antioxidant test (test 2b)
# Test context: absorbance 517 nm after 30 minutes
Readout name: EC50 (µM)

[1] O=C(O)Cc1cc(O)ccc1O[C@@H]1O[C@H](CO)[C@@H](O)[C@H](O)[C@H]1O
[2] O=C1O[C@H]([C@@H](O)CO)C(O)=C1O
Prompt: // returns 1 or 2 , whichever has the lower EC50 Respond using the label that marks the chosen record.
Completion: 2

###

# Assay name: ABTS antioxidant test (test 2a)
# Test context: absorbance 734 nm after 6 minutes
# Protocol: This solution was then was diluted in water to obtain, under the test conditions, an absorbance of 0.5 at 734 nm. In each well of a 96-well microplate, were placed 100 μL of a solution of the extract according to the invention to be evaluated and 150 μL of oxidized ABTS solution. After 6 minutes, the absorbance was measured at 734 nm.
Readout name: EC50 (µM)

[1] O=C(O)Cc1cc(O)ccc1O[C@@H]1O[C@H](CO)[C@@H](O)[C@H](O)[C@H]1O
[2] O=C1O[C@H]([C@@H](O)CO)C(O)=C1O
Prompt: Sort 1 and 2 by EC50 descending and give the first. Respond using the label that marks the chosen record.
Completion: 2

Each recorded value in this set is attributed to patent US11969497B2.
